Assay: Common metabolites in rat plasma by GC-MS/MS after polyI:C and/or maoto
Type: in vivo
Settings: P/C (polyI:C vs control), 1h
The entries below come with measured log2FC of plasma level values attached.
# respond with the number and nothing more

Annotate the molecule O=C(CO)C(O)C(O)CO (centres unmarked) [Ribulose] with its measured log2FC of plasma level.
0.24

---

Experiment: Plasma PK of major maoto compounds by LC-MS/MS after oral administration of maoto
Assay type: in vivo, rat
Conditions: rat plasma, oral maoto 1 g/kg
Measured property: Cmax

1) O=C1C[C@@H](c2ccc(O)cc2)Oc2cc(O)ccc21 [Liquiritigenin]    0.018 µg/mL
2) Oc1cc(O)c2c(c1)O[C@H](c1ccc(O)c(O)c1)[C@@H](O)C2 [(+)-Catechin]    BQL
3) Oc1cc(O)c2c(c1)O[C@H](c1ccc(O)c(O)c1)[C@H](O)[C@H]2c1c(O)cc(O)c2c1O[C@H](c1ccc(O)c(O)c1)[C@H](O)C2 [Procyanidin B2]    BQL
4) O=c1ccc2ccc(O)cc2o1 [7-hydroxycoumarin]    BQL

Annotate the compound Oc1cc(O)c2c(c1)O[C@H](c1ccc(O)c(O)c1)[C@H](O)[C@H]2c1c(O)cc(O)c2c1O[C@H](c1ccc(O)c(O)c1)[C@H](O)[C@H]2c1c(O)cc(O)c2c1O[C@H](c1ccc(O)c(O)c1)[C@H](O)C2 [Procyanidin C1] with its measured Cmax.
BQL

---

The entries below come with measured AUC(0-t) values attached.
Assay: Plasma PK of major maoto compounds by LC-MS/MS after oral administration of maoto
Assay type: in vivo, rat
Conditions: Sprague-Dawley, rat, plasma, po, 4 g/kg
Kindly report the value followed by its unit.

Here are 5 compounds together with their reported answers.
1) Oc1cc(O)c2c(c1)O[C@H](c1ccc(O)c(O)c1)[C@H](O)[C@H]2c1c(O)cc(O)c2c1O[C@H](c1ccc(O)c(O)c1)[C@H](O)C2 [Procyanidin B2]    2.06 ng·h/mL
2) CN[C@@H](C)[C@H](O)c1ccccc1 [l-Ephedrine, l-ephedrine]    2850 ng·h/mL
3) CC1(C)[C@@H](O)CC[C@]2(C)[C@H]3C(=O)C=C4[C@@H]5C[C@@](C)(C(=O)O)CC[C@]5(C)CC[C@@]4(C)[C@]3(C)CC[C@@H]12 [Glycyrrhetinic acid]    3950 ng·h/mL
4) O=C(/C=C/c1ccc(O[C@@H]2O[C@H](CO)[C@@H](O)[C@H](O)[C@H]2O)cc1)c1ccc(O)cc1O [Isoliquiritin]    12.6 ng·h/mL
5) COc1c(CC=C(C)C)c(O)cc2oc(=O)c(-c3ccc(O)cc3O)cc12 [Glycycoumarin]    0.058 ng·h/mL

// below: AUC(0-t) requested for another compound
Annotate the compound N#C[C@H](O[C@@H]1O[C@H](CO[C@@H]2O[C@H](CO)[C@@H](O)[C@H](O)[C@H]2O)[C@@H](O)[C@H](O)[C@H]1O)c1ccccc1 [Amygdalin] with its measured AUC(0-t).
7610 ng·h/mL

---

Assay: Plasma PK of major maoto compounds by LC-MS/MS after oral administration of maoto
Type: in vivo, rat
Settings: rat plasma, oral maoto 2 g/kg
Measured property: Cmax

1) O=C1C[C@@H](c2ccc(O)cc2)Oc2cc(O)ccc21    15.1 ng/mL
2) Oc1cc(O)c2c(c1)O[C@H](c1ccc(O)c(O)c1)[C@H](O)[C@H]2c1c(O)cc(O)c2c1O[C@H](c1ccc(O)c(O)c1)[C@H](O)[C@H]2c1c(O)cc(O)c2c1O[C@H](c1ccc(O)c(O)c1)[C@H](O)C2    BQL
3) O=c1ccc2ccc(O)cc2o1 [7-hydroxycoumarin]    BQL
4) Oc1cc(O)c2c(c1)O[C@H](c1ccc(O)c(O)c1)[C@@H](O)C2 [(+)-Catechin]    0.443 ng/mL

---

The entries below come with measured AUC(0-t) values attached.
Test: Plasma PK of major maoto compounds by LC-MS/MS after oral administration of maoto
Type: in vivo, rat
Details: Sprague-Dawley, rat, plasma, po, 2 g/kg
Give the quantity in ng·h/mL, number only.

1) O=C(O)/C=C/c1ccccc1    2060
2) Oc1cc(O)c2c(c1)O[C@H](c1ccc(O)c(O)c1)[C@H](O)C2 [Epicatechin]    2.78
3) Oc1cc(O)c2c(c1)O[C@H](c1cc(O)c(O)c(O)c1)[C@H](O)C2 [Epigallocatechin]    0.26
4) O=C1C[C@@H](c2ccc(O[C@@H]3O[C@H](CO)[C@@H](O)[C@H](O)[C@H]3O)cc2)Oc2cc(O)ccc21    22.4
5) N#C[C@H](O[C@@H]1O[C@H](CO)[C@@H](O)[C@H](O)[C@H]1O)c1ccccc1    11900

Annotate the compound `COc1cc2ccc(=O)oc2cc1O` with its measured AUC(0-t).
0.428

Annotate the compound `COc1c(CC=C(C)C)c(O)cc2oc(=O)c(-c3ccc(O)cc3O)cc12` with its measured AUC(0-t).
0.0227

Annotate the compound CC(C(O)c1ccccc1)N(C)C (racemic) with its measured AUC(0-t).
46

Annotate the compound `CN[C@@H](C)[C@H](O)c1ccccc1` with its measured AUC(0-t).
1560

---

Assay: Plasma PK of major maoto compounds by LC-MS/MS after oral administration of maoto
Format: in vivo, rat
Conditions: Sprague-Dawley, rat, plasma, po, 2 g/kg
Measured property: AUC(0-t) (ng·h/mL)
Give the quantity in ng·h/mL, number only.

1) O=C(/C=C/c1ccc(O[C@@H]2O[C@H](CO)[C@@H](O)[C@H](O)[C@H]2O)cc1)c1ccc(O)cc1O    6.03

Annotate the molecule `CC1(C)[C@@H](O)CC[C@]2(C)[C@H]3C(=O)C=C4[C@@H]5C[C@@](C)(C(=O)O)CC[C@]5(C)CC[C@@]4(C)[C@]3(C)CC[C@@H]12` with its measured AUC(0-t).
4510

Annotate the molecule `N#C[C@H](O[C@@H]1O[C@H](CO[C@@H]2O[C@H](CO)[C@@H](O)[C@H](O)[C@H]2O)[C@@H](O)[C@H](O)[C@H]1O)c1ccccc1` with its measured AUC(0-t).
1520

---

Type: in vivo, rat
Conditions: PM/P (polyI:C+maoto vs polyI:C), 2h
Measured property: log2FC of plasma level
# respond with the number and nothing more

Here are 3 molecules together with their reported answers.
1. CCC(O)CC/C=C\C/C=C\C/C=C\C/C=C\CCCC(=O)O (stereo not shown)    -0.26
2. CC/C=C\C/C=C\CC(O)/C=C/C=C\C/C=C\C/C=C\CCC(=O)O (stereo not shown)    0.58
3. CCC(O)C(O)C/C=C\C/C=C\C/C=C\C/C=C\CCCC(=O)O (stereo not shown)    -0.30

Annotate the molecule CCCCCC(=O)CC[C@@H]1[C@@H](C/C=C\CCCC(=O)O)[C@@H](O)C[C@H]1O [13,14-dihydro-15-keto-PGF2α] with its measured log2FC of plasma level.
0.05

---

Assay: Plasma PK of major maoto compounds by LC-MS/MS after oral administration of maoto
Format: in vivo, rat
Conditions: Sprague-Dawley, rat, plasma, po, 2 g/kg; read-out: Tmax
Measured property: Tmax (min)
Give the quantity in min, number only.

1) Oc1cc(O)c2c(c1)O[C@H](c1ccc(O)c(O)c1)[C@H](O)C2 [Epicatechin]    15
2) O=C1C[C@@H](c2ccc(O[C@@H]3O[C@H](CO)[C@@H](O)[C@H](O)[C@H]3O)cc2)Oc2cc(O)ccc21 [Liquiritin]    60
3) CC(C(O)c1ccccc1)N(C)C (racemic) [dl-Methylephedrine]    15
4) COc1c(CC=C(C)C)c(O)cc2oc(=O)c(-c3ccc(O)cc3O)cc12 [Glycycoumarin]    60
5) O=C(/C=C/c1ccc(O[C@@H]2O[C@H](CO)[C@@H](O)[C@H](O)[C@H]2O)cc1)c1ccc(O)cc1O [Isoliquiritin]    60

// below: Tmax requested for another molecule
Annotate the molecule Oc1cc(O)c2c(c1)O[C@H](c1ccc(O)c(O)c1)[C@H](O)[C@H]2c1c(O)cc(O)c2c1O[C@H](c1ccc(O)c(O)c1)[C@H](O)C2 [Procyanidin B2] with its measured Tmax.
60

---

The entries below come with measured log2FC of plasma level values attached.
Format: in vivo, rat
Settings: PM/P (polyI:C+maoto vs polyI:C), 2h

1. CCCCC/C=C\C\C=C/C=C/C=C/[C@@H](SC[C@H](N)C(=O)O)[C@@H](O)CCCC(=O)O    -0.91
2. CCCCC/C=C\C=C\C(O)C/C=C\C/C=C\CCCC(=O)O (stereo not drawn)    0.04
3. CCCCCC1OC1C/C=C\C/C=C\C/C=C\CCCC(=O)O (stereo not drawn)    0.02
4. CCCCC/C=C\CC1OC1CCCCCCCC(=O)O (stereo not drawn)    -0.30
5. CCCCCC(=O)/C=C/[C@H]1[C@H](O)CC(=O)[C@@H]1C/C=C\CCCC(=O)O    -0.07

Annotate the compound `CCCCC[C@H](O)/C=C/[C@H]1[C@H](O)CC(=O)[C@H]1C/C=C\CCCC(=O)O` with its measured log2FC of plasma level.
-0.23

Annotate the compound `CCCCC[C@H](O)/C=C/[C@H]1C(=O)C[C@H](O)[C@@H]1C/C=C\CCCC(=O)O` with its measured log2FC of plasma level.
-0.11

Annotate the compound CCCCC/C=C\CC(O)C(O)CCCCCCCC(=O)O (stereo not drawn) with its measured log2FC of plasma level.
0.19

Annotate the compound `CCCCC/C=C\C/C=C\C/C=C\C/C=C\CCCC(=O)O` with its measured log2FC of plasma level.
-0.10

Annotate the compound CCCCCC(O)/C=C/C=C\CCCCCCCC(=O)O (stereo not drawn) with its measured log2FC of plasma level.
-0.11

Annotate the compound CCCCC/C=C\C/C=C\CC(O)/C=C/C=C\CCCC(=O)O (stereo not drawn) with its measured log2FC of plasma level.
0.30

Annotate the compound CCCCC/C=C\C\C=C/C=C/C=C/[C@@H](SCC(NC(C)=O)C(=O)O)[C@@H](O)CCCC(=O)O (stereo partly drawn) with its measured log2FC of plasma level.
-2.45

Annotate the compound CC/C=C\C/C=C\C/C=C\C/C=C\CC(O)C(O)CCCC(=O)O (stereo not drawn) with its measured log2FC of plasma level.
-0.44

Annotate the compound `CCCCCC(=O)/C=C/C=C\CCCCCCCCCC(=O)O` with its measured log2FC of plasma level.
0.21

Annotate the compound `CCCCC[C@H](O)/C=C/[C@@H]1[C@@H](CC(=O)CCCCC(=O)O)[C@@H](O)C[C@H]1O` with its measured log2FC of plasma level.
-0.35

Annotate the compound `CC/C=C\C/C=C\C/C=C\C/C=C\C/C=C\CCCC(=O)O` with its measured log2FC of plasma level.
0.04

Annotate the compound CC/C=C\C/C=C\C=C\C(O)C/C=C\C/C=C\C/C=C\CCC(=O)O (stereo not drawn) with its measured log2FC of plasma level.
-0.06

Annotate the compound CCC(O)/C=C/C=C\C/C=C\C/C=C\C/C=C\C/C=C\CCC(=O)O (stereo not drawn) with its measured log2FC of plasma level.
0.06
